- measured_target: human PAH with the R408W mutation (Homo sapiens, UniProt P00439, R408W)
- Construct: expressed in transfected cells
- Sequence (P00439 whole entry R408W): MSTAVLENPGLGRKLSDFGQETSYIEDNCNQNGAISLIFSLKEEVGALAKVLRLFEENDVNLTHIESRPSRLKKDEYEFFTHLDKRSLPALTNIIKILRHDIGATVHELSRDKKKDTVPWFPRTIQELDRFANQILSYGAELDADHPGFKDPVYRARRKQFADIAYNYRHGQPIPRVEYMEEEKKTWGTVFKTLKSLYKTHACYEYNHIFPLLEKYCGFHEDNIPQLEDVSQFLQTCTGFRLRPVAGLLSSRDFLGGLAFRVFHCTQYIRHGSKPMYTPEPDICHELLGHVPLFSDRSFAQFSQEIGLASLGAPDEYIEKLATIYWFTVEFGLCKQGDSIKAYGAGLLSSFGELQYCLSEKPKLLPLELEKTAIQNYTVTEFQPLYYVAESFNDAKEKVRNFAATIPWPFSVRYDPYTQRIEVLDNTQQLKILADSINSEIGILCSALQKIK
- method: Cell Based Phenylalanine Flux Assay;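 further: after compound treatment, cells received sepiapterin plus isotope-labelled Phenylalanine for 4 hours, then labelled Tyrosine in the medium was quantified, 10-point 2-fold dilution series run in duplicate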
- assay_conditions: A375 cells expressing human R408W PAH; 24 hrs compound incubation; 13C-Tyrosine by LC-MS; average where tested multiple times; read-out: AC50
Assign AC50 to each entry below.

QUERY: Look up AC50 with human PAH with the R408W mutation (Homo sapiens, UniProt P00439, R408W) for this compound: `Cc1ncccc1-c1nnc(C(=O)N2CCc3[nH]cnc3[C@@H]2c2cc3c(C(F)F)cccn3n2)o1`
RESULT: > 5 µM

QUERY: Look up AC50 with human PAH with the R408W mutation (Homo sapiens, UniProt P00439, R408W) for this compound: `O=C(c1nnc(-c2ccn(C(F)F)n2)o1)N1CCc2[nH]cnc2[C@H]1c1cc2cccc(F)n2n1`
RESULT: < 0.5 µM

QUERY: Look up AC50 with human PAH with the R408W mutation (Homo sapiens, UniProt P00439, R408W) for this compound: `Cn1ncnc1C(=O)N1CCc2[nH]cnc2[C@@H]1c1cc2c(F)cccn2n1`
RESULT: 1 to 5 µM

QUERY: Look up AC50 with human PAH with the R408W mutation (Homo sapiens, UniProt P00439, R408W) for this compound: `O=C(c1nnc(C2CC2)o1)N1CCc2[nH]cnc2[C@H]1c1cc2cccc(C(F)F)n2n1`
RESULT: 0.5 to 1 µM

QUERY: Look up AC50 with human PAH with the R408W mutation (Homo sapiens, UniProt P00439, R408W) for this compound: `Cn1cc(-c2nnc(C(=O)N3CCc4[nH]cnc4[C@@H]3c3cc4ccccn4n3)o2)c(C(F)(F)F)n1`
RESULT: > 5 µM

QUERY: Look up AC50 with human PAH with the R408W mutation (Homo sapiens, UniProt P00439, R408W) for this compound: `Cc1cccc2cc([C@@H]3c4nc[nH]c4CCN3C(=O)c3nnc(-c4cnn(C(F)F)c4)o3)nn12`
RESULT: 0.5 to 1 µM

QUERY: Look up AC50 with human PAH with the R408W mutation (Homo sapiens, UniProt P00439, R408W) for this compound: `Cc1nc(C(C)(C)O)oc1C(=O)N1CCc2[nH]cnc2[C@H]1c1cc2cccc(Cl)n2n1`
RESULT: 0.5 to 1 µM

QUERY: Look up AC50 with human PAH with the R408W mutation (Homo sapiens, UniProt P00439, R408W) for this compound: `O=C(c1nnc(-c2cccnc2)o1)N1CCc2[nH]cnc2[C@@H]1c1cc2c(C(F)(F)F)cccn2n1`
RESULT: 1 to 5 µM

QUERY: Look up AC50 with human PAH with the R408W mutation (Homo sapiens, UniProt P00439, R408W) for this compound: `CC1(c2nnc(C(=O)N3CCc4[nH]cnc4[C@H]3c3cc4c(F)cccn4n3)o2)CC1`
RESULT: < 0.5 µM

QUERY: Look up AC50 with human PAH with the R408W mutation (Homo sapiens, UniProt P00439, R408W) for this compound: `O=C(c1nnc(-c2cnn(C3CCC3)c2)o1)N1CCc2[nH]cnc2[C@H]1c1cc2c(F)cccn2n1`
RESULT: < 0.5 µM

QUERY: Look up AC50 with human PAH with the R408W mutation (Homo sapiens, UniProt P00439, R408W) for this compound: `Cn1cc(-c2nnc(C(=O)N3CCc4[nH]cnc4[C@@H]3c3cc4c(C(F)(F)F)cccn4n3)o2)cn1`
RESULT: > 5 µM

QUERY: Look up AC50 with human PAH with the R408W mutation (Homo sapiens, UniProt P00439, R408W) for this compound: `O=C(c1ocnc1C(F)F)N1CCc2[nH]cnc2[C@@H]1c1cc2ccc(C(F)(F)F)cn2n1`
RESULT: 1 to 5 µM

QUERY: Look up AC50 with human PAH with the R408W mutation (Homo sapiens, UniProt P00439, R408W) for this compound: `Cc1cccn2nc([C@H]3c4nc[nH]c4CCN3C(=O)c3nnc(C4CC(F)(F)C4)o3)cc12`
RESULT: > 5 µM

QUERY: Look up AC50 with human PAH with the R408W mutation (Homo sapiens, UniProt P00439, R408W) for this compound: `Cc1nc(C(C)(C)O)oc1C(=O)N1CCc2[nH]cnc2[C@H]1c1cc2c(F)cccn2n1`
RESULT: 0.5 to 1 µM

QUERY: Look up AC50 with human PAH with the R408W mutation (Homo sapiens, UniProt P00439, R408W) for this compound: `O=C(c1oc(-c2ccccn2)nc1C(F)F)N1CCc2[nH]cnc2[C@@H]1c1cc2ccccn2n1`
RESULT: 1 to 5 µM
